These data points were gathered from patent US20230322721A1.

- Protocol Description: Metabolic stability in human liver microsomes (HLM)
- Type: in vitro ADME
- Experimental Setup: pH 7.4, 1 μM compound, 0.5 mg/ml microsomal protein, 37° C., read-out: HLM t1/2 average
Observable: half-life at 1 μM

Observe how each entry below is paired with its result.
Molecule	half-life at 1 μM
CCOc1ccc(-c2nnc([C@H]3C[C@H](NC(=O)c4cccc5nc(O)c(O)nc45)C3)n2-c2ccccc2F)nc1	> 90 min
CCOc1ccc(-c2nnc([C@H]3C[C@H](NC(=O)c4cccc5ncc(O)nc45)C3)n2-c2ccccc2F)nc1	31 min
CCOc1ccc(-c2nnc([C@H]3C[C@H](NC(=O)c4cccc5nccnc45)C3)n2-c2ccccc2F)nc1 [Example 154 of WO 2019/243822, reference compound]	35 min

Continue with the molecule presented below.
I'd like to know its half-life at 1 μM. The molecule in question is CCOc1ccc(-c2nnc([C@H]3C[C@H](NC(=O)c4cccc5c4ncc[n+]5[O-])C3)n2-c2ccccc2F)nc1
> 90 min

====

- Test system: HEK293
- Protocol Description: Cellular IC50 HEK293
- Assay type: cell-based
- Experimental Setup: Homo sapiens, HEK293, read-out: Cellular IC50 HEK293
pIC50: −log10 of the molar value.
Is pIC50 at least 8? Then Satisfied. If not, Not satisfied.

Example entries and their recorded answers appear below.
Compound	Label Class
CCOc1ccc(-c2nnc([C@H]3C[C@H](NC(=O)c4cc[n+]([O-])c5cc(OC)cnc45)C3)n2-c2ccccc2F)nc1 [Example 28]	Satisfied
CCOc1ccc(-c2nnc([C@H]3C[C@H](NC(=O)c4cccc5c4ccc[n+]5[O-])C3)n2-c2ccccc2F)nc1 [Example 25]	Not satisfied
CCOc1ccc(-c2nnc([C@H]3C[C@H](NC(=O)c4cccc5nccnc45)C3)n2-c2ccccc2F)nc1 [Example 154 of WO 2019/243822, reference compound]	Satisfied
CCOc1ccc(-c2nnc([C@H]3C[C@H](NC(=O)c4cc[n+]([O-])c5cc(O)cnc45)C3)n2-c2ccccc2F)nc1 [Example 27]	Not satisfied
CCOc1ccc(-c2nnc([C@H]3C[C@H](NC(=O)c4cccc5c4ncc[n+]5[O-])C3)n2-c2ccccc2F)nc1 [Example 4]	Satisfied

Exam item: decide whether the reported pIC50 for CCOc1ccc(-c2nnc([C@H]3C[C@H](NC(=O)c4cccc(C(=O)N5CCC5)n4)C3)n2-c2ccccc2F)nc1 [Example 10] is at least 8.
Not satisfied

Textbook exercise: given the entry CCOc1ccc(-c2nnc([C@H]3C[C@H](NC(=O)c4cccc5c4nc(C)c(C)[n+]5[O-])C3)n2-c2ccccc2F)nc1 [Example 24] , state whether its pIC50 is greater than or equal to 8.
Satisfied

====

- Tested on: HEK293
- Protocol Description: Cellular IC50 HEK293
- Type: cell-based
- Experimental Setup: Homo sapiens, HEK293; read-out: Cellular IC50 HEK293
Observable: log10 of IC50 (log10 of the value in nM)
Field: value | Transform: log10 | Quantity: IC50 | Unit: nM

Recorded results for 3 molecules are shown here.
> print(dat)
                                   molecule     observable  test.result
1  CCOc1ccc(-c2nnc([C@H]3C[C@H](NC(=O)c4cccc(S(N)(=O)=O)c4)C3)n2-c2ccccc2F)nc1 [Example 16]  log10 of IC50         3.35
2  CCOc1ccc(-c2nnc([C@H]3C[C@H](NC(=O)c4cccc5ncc(O)nc45)C3)n2-c2ccccc2F)nc1 [Example 1]  log10 of IC50         2.34
3  CCOc1ccc(-c2nnc([C@H]3C[C@H](NC(=O)c4cccc(C(=O)NC)n4)C3)n2-c2ccccc2F)nc1 [Example 8]  log10 of IC50         1.32

What reported log10 of IC50 corresponds to CCOc1ccc(-c2nnc([C@H]3C[C@H](NC(=O)c4cccc(C(=O)N(C)C)n4)C3)n2-c2ccccc2F)nc1 [Example 9] on HEK293?
2.27

// lookup log10 of IC50 | system=HEK293 | key= CCOc1ccc(-c2nnc([C@H]3C[C@H](NC(=O)c4cccc(=O)[nH]4)C3)n2-c2ccccc2F)nc1 [Example 11]
3.44

Observed log10 of IC50 on HEK293 for CCOc1ccc(-c2nnc([C@H]3C[C@H](NC(=O)c4cccc5c(O)ccnc45)C3)n2-c2ccccc2F)nc1 [Example 14] , please.
0.93
